# Lookup of reported melting point keyed by entry

The following molecules have reported results that may help.
smiles-str: Nc1nccc(Oc2ccc3c(c2)CCCCN3C(=O)Nc2cccc(C(F)(F)F)c2)n1
melting point: 207 °C
--
smiles-str: CN1CCN(CCCNc2cc(Oc3ccc4c(c3)CCN4C(=O)Nc3cccc(C(F)(F)F)c3)ncn2)CC1
melting point: 163 °C
--
smiles-str: O=C(Nc1cccc(C(F)(F)F)c1)N1CCCCc2cc(Oc3cc(Cl)ncn3)ccc21
melting point: 120 °C
--
smiles-str: O=C(Nc1ccccc1)c1cc(Oc2ccc3c(c2)CCN3C(=O)Nc2cccc(C(F)(F)F)c2)ncn1
melting point: 227 to 229 °C
--
smiles-str: Nc1nc(Cl)cc(Oc2ccc3c(c2)CCCCN3C(=O)Nc2cccc(C(F)(F)F)c2)n1
melting point: 175 °C
--
smiles-str: CC(C)(N)CCC(=O)Nc1cc(Oc2ccc3c(c2)CCN3C(=O)Nc2ccc(N3CCOCC3)c(C(F)(F)F)c2)ncn1
melting point: 211 to 214 °C
--
smiles-str: CN1CCN(C(=O)Nc2cc(Oc3ccc4c(c3)CCN4C(=O)Nc3ccc(N4CCOCC4)c(C(F)(F)F)c3)ncn2)CC1
melting point: 175 to 177 °C
--
smiles-str: O=C(Nc1cc(Oc2ccc3c(c2)CCN3C(=O)Nc2ccc(N3CCOCC3)c(C(F)(F)F)c2)ncn1)c1cccnc1
melting point: 253 to 258 °C
--
smiles-str: CNc1cc(Oc2ccc3c(c2)CCCN3C(=O)Nc2ccc(C(C)(C)C)cc2)ncn1
melting point: 175 to 176 °C
--
smiles-str: CN1CCN(Cc2ccc(NC(=O)N3CCCc4cc(Oc5ccnc(N)n5)ccc43)cc2C(F)(F)F)CC1
melting point: 120 to 123 °C

[ask] GET /values?readout=melting point&item= COC(=O)Nc1cc(Oc2ccc3c(c2)CCN3C(=O)Nc2ccc(N3CCOCC3)c(C(F)(F)F)c2)ncn1
[reply] 206 to 209 °C

[ask] Query CC(C)Nc1cc(Oc2ccc3c(c2)CCN3C(=O)Nc2cccc(C(F)(F)F)c2)ncn1 next
[reply] 189 °C

[ask] Query CC(C)(CCC(=O)Nc1cc(Oc2ccc3c(c2)CCN3C(=O)Nc2ccc(N3CCOCC3)c(C(F)(F)F)c2)ncn1)[N+](=O)[O-] next
[reply] 193 to 197 °C
